Mean (compound concentration) reference
method_summary: Plasma stability, mouse plasma
protocol_conditions: mouse plasma, 37° C., timepoint 2 h
Bridge positions count the residues as written; N and C are the ends. Peptide text beside a SMILES is read from it.

{"molecule": "CC(=O)N[C@@H](CO)C(=O)N[C@@H](CCCNC(=N)N)C(=O)N[C@@H](CC(C)C)C(=O)N[C@@H](CCC(=O)O)C(=O)N[C@H]1CC(=O)NCCCC[C@@H](C(=O)N[C@@H](CCCNC(=N)N)C(=O)N[C@@H](CC(C)C)C(=O)N[C@H](C(=O)N[C@@H](CCC(=O)O)C(N)=O)[C@@H](C)O)NC(=O)[C@H](CCCNC(=N)N)NC(=O)[C@H](CC(C)C)NC(=O)[C@H](CCC(=O)O)NC1=O [SD15196] (Ac-SRLEDELRKRLTE-NH2; lactam 5-9)", "Mean (compound concentration)": 2.28}
{"molecule": "CC(=O)N[C@@H](CO)C(=O)N[C@@H](CCCNC(=N)N)C(=O)N[C@@H](CC(C)C)C(=O)N[C@@H](CCC(=O)O)C(=O)N[C@H]1CCC(=O)NCCCC[C@@H](C(=O)N[C@@H](CCCNC(=N)N)C(=O)N[C@@H](CCCNC(=N)N)C(=O)N[C@@H](CC(C)C)C(=O)N[C@H](C(=O)N[C@@H](CCC(=O)O)C(N)=O)[C@@H](C)O)NC(=O)[C@H](CC(C)C)NC(=O)[C@H](CCC(=O)O)NC1=O [SD15192] (Ac-SRLEEELKRRLTE-NH2; lactam 5-8)", "Mean (compound concentration)": 2.32}
{"molecule": "CC(=O)N[C@@H](CO)C(=O)N[C@@H](CCCNC(=N)N)C(=O)N[C@@H](CC(C)C)C(=O)N[C@@H](CCC(=O)O)C(=O)N[C@H]1CCC(=O)NCCCC[C@@H](C(=O)N[C@@H](CCCNC(=N)N)C(=O)N[C@@H](CC(C)C)C(=O)N[C@H](C(=O)N[C@@H](CCC(=O)O)C(N)=O)[C@@H](C)O)NC(=O)[C@H](CCCNC(=N)N)NC(=O)[C@H](CC(C)C)NC(=O)[C@H](CCC(=O)O)NC1=O [SD15194] (Ac-SRLEEELRKRLTE-NH2; lactam 5-9)", "Mean (compound concentration)": 2.46}
